B1: Twister Ribozyme (parent)
chain: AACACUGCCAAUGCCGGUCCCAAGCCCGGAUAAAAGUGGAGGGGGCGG

Variants of: B1
protocol: self-cleavage, relative activity (ratio to wild type); higher = more cleavage; co-transcriptional
// class assignment uses self-cleavage with these ranges: low interval (below 0.1), middle interval (0.1 to below 0.6), high interval (0.6 or more)

Look over these answered cases.
INSERT INTO measurements (alteration, discrete_label) VALUES
  ('A22U G47C', 'middle interval'),
  ('C8U C46G', 'middle interval'),
  ('C19A G47U', 'middle interval');

Category of C9A G13A : high interval

Category of U12C U37G : high interval
